The origin of these recorded values is patent US9119845B2.

SYSTEM NAME: GCase (Homo sapiens (Human), UniProt P04062)
Sequence (P04062 40-536): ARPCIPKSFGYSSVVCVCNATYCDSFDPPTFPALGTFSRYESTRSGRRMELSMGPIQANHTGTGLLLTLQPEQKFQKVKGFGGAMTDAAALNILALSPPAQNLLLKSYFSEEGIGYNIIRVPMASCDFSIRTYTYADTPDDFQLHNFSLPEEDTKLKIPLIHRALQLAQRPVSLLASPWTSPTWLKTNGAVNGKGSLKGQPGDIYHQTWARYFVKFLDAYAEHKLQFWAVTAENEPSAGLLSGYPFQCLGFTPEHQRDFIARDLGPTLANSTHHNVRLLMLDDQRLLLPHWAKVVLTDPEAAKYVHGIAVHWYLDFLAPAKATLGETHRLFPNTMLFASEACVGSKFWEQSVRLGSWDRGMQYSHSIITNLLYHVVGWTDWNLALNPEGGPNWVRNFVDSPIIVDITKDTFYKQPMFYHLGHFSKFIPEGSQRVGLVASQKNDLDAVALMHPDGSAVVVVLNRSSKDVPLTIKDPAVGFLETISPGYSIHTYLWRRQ
EXPERIMENTAL CONTEXT: read-out: IC50 for GCase; printed in synthesis headings
READOUT TYPE: IC50

CC(C)(C)C#Cc1cn2c(n1)[C@H](OCc1ccccc1)[C@@H](OCc1ccccc1)[C@H](OCc1ccccc1)[C@H]2COCc1ccccc1; ~1.1 nM
